List of melting point values.

COMPOUND	OBSERVED
CNc1c(F)cccc1C(N)=O	186 to 188 °C
O=C(O)c1ccc(S(=O)(=O)N2CCCCCC2)cc1	235 to 237 °C
Cc1ccc(CN(C)c2ccc(C(=O)O)cc2)cc1	177 to 179 °C
Cc1c(C=O)c2ccccn2c1C=O	214 to 216 °C
N=C(N)NN=Cc1ccccc1	179 to 181 °C
O=C1CCC(O)(c2ccccc2)CC1	126 to 128 °C
Nc1nc(Cc2ccccc2)cs1	89 to 91 °C
Cc1nn(-c2ccccc2)c(N)c1C(F)(F)F	77 to 79 °C

Task: Can you share its melting point? I mean this compound: OC(CNCc1ccccc1)c1cccs1 (stereo not given)
Result: 95 to 97 °C

Origin of the recorded values: a melting point compilation (Tetko et al.)
